// z-score lookup, one value per entry
target under test: Homeobox protein Hox-A13 (Mus musculus)
experiment description: inhibitors of HoxA13-DNA binding, primary screen, biochemical, fluorescence polarization, labeled oligonucleotide (AID 1185)
measurement conditions: 15 min, higher = more signal, called active from +8 up or from −8 down
Reply with just the number.

compound=C[C@@]1([C@@H](NC(=O)c2ccccc2)c2ccc(-c3ccccc3)cc2)C[C@H]1C1CCCCC1 number=-0.0623

Input: Please supply the value of reported z-score for the item CC(C)C[C@H]1NC(=O)[C@@]23C(=O)N[C@@H](Cc4ccccc4)C2[C@H](C)[C@@]2(C)O[C@H]2C3/C=C/C/C=C\CNC(=O)[C@H](Cc2ccccc2)NC1=O (some centres undefined)
Output: -7.51

Input: Please supply the value of reported z-score for the item C=CC[C@]1(C(=O)N2CCCCC2)N=C(c2ccc(OCCCO)cc2)O[C@H]1c1ccccc1
Output: -5.69

Input: Please supply the value of reported z-score for the item COc1ccc(NN2C(C(O)c3ccc([N+](=O)[O-])cc3)C=CC3C(=O)N(C4CCCCC4)C(=O)C32)cc1 (centres undefined)
Output: -3.73

The reported measurements were obtained from PubChem BioAssay.
